Parameter: % Proliferation A172. Scope: all listed entries.
Test system: A172
Test: Cell proliferation assay (CCK8), fixed concentration, reference GBM cell line A172
Assay type: cell-based, human
Conditions: fixed test concentration per compound, Table 1 log[M]: Trequinsin −4.6, Fucoxanthin −4.8, PF04449613 −4, PF02545920 −4.6, TIC10 −5, PF04691502 −6.6, GSK1059615 −5.5, LY294002 −5, Axitinib −5, Temozolomide −5
Lab book: enter the figure in %, no units written.

Example compounds with recorded % Proliferation A172:
Compound	Quantitative readout
O=C1NC(=O)/C(=C/c2ccc3nccc(-c4ccncc4)c3c2)S1	26
Cn1nnc2c(C(N)=O)ncn2c1=O [Temozolomide]	87
COc1cc2c(cc1OC)-c1c/c(=N\c3c(C)cc(C)cc3C)n(C)c(=O)n1CC2	63
COc1ccc(-c2cc3c(C)nc(N)nc3n([C@H]3CC[C@H](OCCO)CC3)c2=O)cn1	56

Here is another compound to look at.
Entry under review: "Cc1ccccc1CN1C(=O)C2=C(CCN(Cc3ccccc3)C2)N2CCN=C12" . Reported % Proliferation A172?
32

###

Tested on: A172
Assay: Cell proliferation assay (CCK8), fixed concentration, reference GBM cell line A172
Format: cell-based, human
Conditions: fixed test concentration per compound, Table 1 log[M]: Trequinsin −4.6, Fucoxanthin −4.8, PF04449613 −4, PF02545920 −4.6, TIC10 −5, PF04691502 −6.6, GSK1059615 −5.5, LY294002 −5, Axitinib −5, Temozolomide −5
Readout name: % Inhibiton A172 (%)
Lab book: enter the figure in %, no units written.

Entry under review: Cn1nnc2c(C(N)=O)ncn2c1=O [Temozolomide] . Reported % Inhibiton A172?
13

And "Cc1ccccc1CN1C(=O)C2=C(CCN(Cc3ccccc3)C2)N2CCN=C12" ?
68

And "C[C@H](c1nc2c(cnn2C2CCOCC2)c(=O)[nH]1)N1CC(Oc2ccccc2)C1" ?
61

###

Test system: U87
Assay: Cell proliferation assay (CCK8), fixed concentration, reference GBM cell line U87
Type: cell-based, human
Conditions: fixed test concentration per compound, Table 1 log[M]: Trequinsin −4.6, Fucoxanthin −4.8, PF04449613 −4, PF02545920 −4.6, TIC10 −5, PF04691502 −6.6, GSK1059615 −5.5, LY294002 −5, Axitinib −5, Temozolomide −5
Parameter: % Inhibiton U87. Scope: all listed entries.
Lab book: enter the figure in %, no units written.

Example molecules with recorded % Inhibiton U87:
Molecule	Tested on	% Inhibiton U87 (%)
O=C1NC(=O)/C(=C/c2ccc3nccc(-c4ccncc4)c3c2)S1 [GSK1059615]	U87	57
Cn1nnc2c(C(N)=O)ncn2c1=O [Temozolomide]	U87	5

Here is another molecule to look at.
Enter reported % Inhibiton U87 observed with U87 for Cc1ccccc1CN1C(=O)C2=C(CCN(Cc3ccccc3)C2)N2CCN=C12 [TIC10]
27

###

Parameter: % Inhibiton A172. Scope: all listed entries.
Test system: A172
Assay: Cell proliferation assay (CCK8), fixed concentration, reference GBM cell line A172
Type: cell-based, human
Conditions: fixed test concentration per compound, Table 1 log[M]: Trequinsin −4.6, Fucoxanthin −4.8, PF04449613 −4, PF02545920 −4.6, TIC10 −5, PF04691502 −6.6, GSK1059615 −5.5, LY294002 −5, Axitinib −5, Temozolomide −5

Example molecules with recorded % Inhibiton A172:
Molecule	% Inhibiton A172
COc1cc2c(cc1OC)-c1c/c(=N\c3c(C)cc(C)cc3C)n(C)c(=O)n1CC2 [Trequinsin]	37%
O=C1NC(=O)/C(=C/c2ccc3nccc(-c4ccncc4)c3c2)S1 [GSK1059615]	74%
O=c1cc(N2CCOCC2)oc2c(-c3ccccc3)cccc12 [LY294002]	42%

Entry under review: Cn1cc(-c2ccncc2)c(-c2ccc(OCc3ccc4ccccc4n3)cc2)n1 [PF02545920] . Reported % Inhibiton A172?
80%

And COc1ccc(-c2cc3c(C)nc(N)nc3n([C@H]3CC[C@H](OCCO)CC3)c2=O)cn1 [PF04691502] ?
44%
